# Experimental Protocol: Toxicity liver stage against HepG2, at 10uM
# Format: cell-based
# Parameters: test concentration 10 uM, cell line HepG2-A16-CD81EGFP
# Run Parameters: human, HepG2-A16-CD81EGFP cells; read-out: INHIBITION
Quick list: cytotoxicity at 10 µM per entry.

>  <Molecule>
CC(C(=O)NCc1ccc2c(c1)OCCO2)n1cncn1 (stereo unspecified)

>  <Units Text>
%

>  <cytotoxicity at 10 µM>
-141

$$$$
>  <Molecule>
CS(=O)(=O)N1CCN(C(=O)c2cccc(Cl)c2)CC2(CNC(=O)C2)C1 (stereo unspecified)

>  <Units Text>
%

>  <cytotoxicity at 10 µM>
6.86

$$$$
>  <Molecule>
CCOCCNC(=O)c1cccnc1Sc1cc(OC)ccc1OC

>  <Units Text>
%

>  <cytotoxicity at 10 µM>
0.354

$$$$
>  <Molecule>
CCOc1cccc(CNC(=O)NCC(O)c2cccc(F)c2)c1 (stereo unspecified)

>  <Units Text>
%

>  <cytotoxicity at 10 µM>
-2.92

$$$$
>  <Molecule>
Cn1cc(CN2CC[C@H]3CO[C@H](CNc4ncccn4)[C@H]3C2)cn1

>  <Units Text>
%

>  <cytotoxicity at 10 µM>
-15.6

$$$$
>  <Molecule>
Cc1nc(CN2CCn3cc(CNC(=O)C4CCC4)nc3C2)cs1

>  <Units Text>
%

>  <cytotoxicity at 10 µM>
-6.52

$$$$
>  <Molecule>
CCn1cnnc1CNC(=O)NC(C)c1ccccn1 (stereo unspecified)

>  <Units Text>
%

>  <cytotoxicity at 10 µM>
-17.6

$$$$
>  <Molecule>
Cc1cc(C)n(CCNCc2cc(-c3ccc(Cl)cc3)c[nH]c2=O)n1

>  <Units Text>
%

>  <cytotoxicity at 10 µM>
-2.38

$$$$
>  <Molecule>
Fc1ccc(-c2ccc(CNC3CCc4ncnn4C3)o2)cc1 (stereo unspecified)

>  <Units Text>
%

>  <cytotoxicity at 10 µM>
-7.62

$$$$
>  <Molecule>
CCC(C)c1cc(C(=O)N(CC(=O)NC)c2cccc(F)c2)on1 (stereo unspecified)

>  <Units Text>
%

>  <cytotoxicity at 10 µM>
6.33

$$$$
>  <Molecule>
Cc1cc(C)cc(C(=O)Nc2cccc(CN3CCCC3C(N)=O)c2)c1 (stereo unspecified)

>  <Units Text>
%

>  <cytotoxicity at 10 µM>
4.38

$$$$
